test: gradient 5% acetonitrile 3 min, to 50% in 2 min, to 85% in 15 min, held 3 min, 100 µL/min; details: column: Zorbax Extend-C18 2.1 x 50 mm; eluents: water / acetonitrile, 0.1% formic acid
Entries annotated with measured RP-LC retention time
Reply with just the number (in s).

{"compound": "NS(=O)(=O)c1ccc(CCNC(=O)C2CCCN(c3nc4ccccc4[nH]3)C2)cc1 (centres undefined)", "assay-value": 577}
{"compound": "Cc1cc2c(cc1S(=O)(=O)N1CCCC1C(=O)Nc1ccc(F)cc1)OC(C)C(=O)N2 (centres undefined)", "assay-value": 775}
{"compound": "COc1ccc(-n2ccn3cc(-c4ccc(F)cc4)nc3c2=O)cc1Cl", "assay-value": 859}
{"compound": "Cc1ccc(-c2ccc(=O)n(Cc3nc(-c4ccc(F)cc4)no3)n2)cc1", "assay-value": 1090}
{"compound": "CC1CCN(c2ncc3c(n2)CCC(C(=O)NCc2ccc(OC(C)C)cc2)C3)CC1 (centres undefined)", "assay-value": 908}

Kindly note the recorded RP-LC retention time for Cn1c(N)c(S(=O)(=O)Nc2ccc(Br)cc2)c(=O)n(C)c1=O , which is 672

compound COC(=O)c1cc(OCC(=O)Nc2ccc(F)cc2)c2cc(F)ccc2n1 , RP-LC retention time observed: 836

Query COCC(=O)N1CCCN(C2=NS(=O)(=O)C(c3ccc(Cl)cc3)=C2C)CC1 yields RP-LC retention time of 723

The recorded RP-LC retention time for CCS(=O)(=O)N1CCCN(C2=NS(=O)(=O)C(c3ccccc3)=C2C)CC1 is 751

Where do the numbers come from? From the METLIN SMRT retention time set (Domingo-Almenara et al. 2019).
